system: HLA-A*02; assay: MHC binding assay, UV-ligand exchange with β2m ELISA, HLA-A*02 (Table 20); set-up: species or system human; conditions: binding to HLA-A*02 ranged by peptide exchange yield (UV-ligand exchange, β2m ELISA)
Endpoint: Peptide exchange

// below: answered substances
INSERT INTO assay_data (substance, observed_measurement) VALUES
  ('243 (FMADDIFSV; listed as Homo sapiens) [compound 243]', '+++ (50%-75% = +++)'),
  ('10 (GIAGSLKTV; listed as Homo sapiens) [compound 10]', '+++ (50%-75% = +++)'),
  ('128 (TQSPATLSV; listed as Homo sapiens) [compound 128]', '++ (20%-49% = ++)'),
  ('145 (YLWATIQRI; listed as Homo sapiens) [compound 145]', '+++ (50%-75% = +++)'),
  ('241 (KTIQQLETV; listed as Homo sapiens) [compound 241]', '++ (20%-49% = ++)'),
  ('40 (VLIDPQWVLTA; listed as Homo sapiens) [compound 40]', '+++ (50%-75% = +++)');

Challenge: Which measured Peptide exchange value corresponds to 76 (AVGPVHNSV; listed as Homo sapiens) [compound 76] ?
Response given: ++ (20%-49% = ++)

Challenge: Which measured Peptide exchange value corresponds to 246 (TVSDVLNSV; listed as Homo sapiens) [compound 246] ?
Response given: +++ (50%-75% = +++)

Challenge: Which measured Peptide exchange value corresponds to 25 (TMDSVLVTV; listed as Homo sapiens) [compound 25] ?
Response given: +++ (50%-75% = +++)

Challenge: Which measured Peptide exchange value corresponds to 123 (VLDPALPALV; listed as Homo sapiens) [compound 123] ?
Response given: ++ (20%-49% = ++)

Challenge: Which measured Peptide exchange value corresponds to 112 (SLGKFTFDV; listed as Homo sapiens) [compound 112] ?
Response given: ++++ (≧75% = ++++)
